- assayed-system: UniProt K9J9S0
- Sequence (K9J9S0 20-127): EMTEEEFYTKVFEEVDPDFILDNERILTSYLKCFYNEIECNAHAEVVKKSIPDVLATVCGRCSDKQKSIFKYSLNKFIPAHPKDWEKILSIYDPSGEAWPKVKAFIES
- experiment-description: Fluorescence competitive binding assay with 1-NPN as probe, recombinant AlinCSP4
metric-name: pIC50
# pIC50 is unitless: minus log10 of the molar concentration; print number only

Recorded results for 5 compounds are shown here.
[Q] Report pIC50 for CC/C=C\CCO [cis-3-Hexen-1-ol] tested on UniProt K9J9S0.
[A] 4.66

[Q] Test system UniProt K9J9S0; read-out pIC50; what value for CCCCCCCC=O ?
[A] 4.96

[Q] // lookup pIC50 | system=UniProt K9J9S0 | key= CCCCCCC(C)=O
[A] 4.60

[Q] So what pIC50 did COC(=O)c1ccccc1O [Methyl salicylate] get with UniProt K9J9S0?
[A] 4.90

[Q] What value of pIC50 on UniProt K9J9S0 does c1ccc2[nH]ccc2c1 have?
[A] 4.63

New cases:
[Q] # returns recorded pIC50 (system: UniProt K9J9S0) for CCC/C=C/COC(=O)CCC [trans-2-hexenyl butyrate]
[A] 4.96

[Q] Hello, I am looking for reported pIC50 with UniProt K9J9S0 for CC(=O)CCC=C(C)C . Could you help?
[A] 4.69

[Q] Identify the measured pIC50 of CCCCCCC=O for UniProt K9J9S0.
[A] 4.94

[Q] Look up pIC50 with UniProt K9J9S0 for this compound: C=C1CC/C=C(\C)CC[C@@H]2[C@@H]1CC2(C)C
[A] 5.65

[Q] Identify the measured pIC50 of CCCC(=O)OCC [Ethyl butyrate] for UniProt K9J9S0.
[A] 5.01

[Q] Find the measured pIC50: item CCCCCCOC(=O)CCC [Hexyl butyrate] , target or system UniProt K9J9S0.
[A] 5.04

[Q] Form entry - test system: UniProt K9J9S0; read-out: pIC50; compound: CCCCCC(C)=O
[A] 4.56

* * *

- assayed-system: AlinCSP4 (Adelphocoris lineolatus, UniProt K9J9S0)
- experiment-description: Binding of fluorescent probe 1-NPN to recombinant AlinCSP4
metric-name: Kd (nM)
The reply should be a number in nM, with the unit left off.

[Q] # query: Kd | item c1ccc(Nc2cccc3ccccc23)cc1 | system: AlinCSP4 (Adelphocoris lineolatus, UniProt K9J9S0)
[A] 2800

* * *

- assayed-system: AlinCSP4 (Adelphocoris lineolatus)
- experiment-description: Fluorescence competitive binding assay with 1-NPN as probe, recombinant AlinCSP4
pIC50: −log10 of the molar value.
pIC50 below 5 gives NOT MET; pIC50 at or above it gives MET.

Please review the entries below; each comes with its answer.
[Q] pIC50 >= 5 for CCCC(=O)CC [Ligand 3-Hexanone, 3-Hexanone] ?
[A] NOT MET

[Q] Check the entry CCCCCCOC(=O)CCCCC [Hexyl hexanoate] : does pIC50 equal or exceed 5?
[A] MET

[Q] Kindly determine if pIC50 recorded for C=CC(C)(O)CCC=C(C)CCC=C(C)C (mixture of isomers) [Nerolidol] is above or exactly 5.
[A] MET

[Q] pIC50 >= 5 for CC/C=C\CCOC(C)=O [cis-3-hexenyl acetate] ?
[A] NOT MET

More entries:
[Q] I'd appreciate it if you could say whether CCCCCCCCCOC(C)=O [Nonyl acetate] has pIC50 at least equal to 5.
[A] MET

* * *

- assayed-system: AlinCSP6 (Adelphocoris lineolatus, UniProt K9J9R7)
- Sequence (K9J9R7 20-132): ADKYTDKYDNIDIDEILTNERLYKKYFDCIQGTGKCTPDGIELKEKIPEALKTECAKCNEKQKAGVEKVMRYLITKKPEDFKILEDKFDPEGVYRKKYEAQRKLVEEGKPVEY
- experiment-description: Binding of fluorescent probe 1-NPN to recombinant AlinCSP6
metric-name: Kd (µM)
Write down the numeric answer in µM and omit the unit.

[Q] Need Kd of c1ccc(Nc2cccc3ccccc23)cc1 [Ligand 1-NPN, N-phenyl-1-naphthylamine] , thanks.
[A] 8.3

* * *

- assayed-system: AlinCSP4 (Adelphocoris lineolatus, UniProt K9J9S0)
- experiment-description: Fluorescence competitive binding assay with 1-NPN as probe, recombinant AlinCSP4
metric-name: pIC50
Friendly reminder that pIC50 comes from taking -log10 of the concentration in mol/L.

Examples with their reported pIC50 follow.
[Q] So what does the record say about pIC50 for C=CC(=C)CCC=C(C)C ?
[A] 4.70

[Q] For O=Cc1ccccc1 , what is its reported pIC50?
[A] 4.85

[Q] Tell me the measured pIC50 of CCC/C=C/C=O [trans-2-Hexenal] , please.
[A] 4.79

[Q] Quick one: pIC50 for CCCCCCO ?
[A] 4.90

[Q] Dear colleague, I am looking for the recorded pIC50 of the following compound: CC(=O)/C=C/C1=C(C)CCCC1(C)C
[A] 4.99

[Q] Return reported pIC50; argument: CCCCCCCCC=O
[A] 4.89

[Q] // lookup pIC50 for CCCCCC=O
[A] 4.98

[Q] # input compound: CCCCCCCCCCC ; wanted: its pIC50
[A] 5.15

---
[Q] Reported pIC50 for CCCCC(C)=O : what is it?
[A] 4.59

[Q] Entry CCCCOC(=O)CCC [Butyl butyrate] : reported pIC50 = ?
[A] 4.68

[Q] Which value of pIC50 has been reported for CC(=O)c1ccccc1 in the records?
[A] 4.56

* * *

- assayed-system: AlinCSP5 (Adelphocoris lineolatus)
- Sequence (K9J9X7 22-127): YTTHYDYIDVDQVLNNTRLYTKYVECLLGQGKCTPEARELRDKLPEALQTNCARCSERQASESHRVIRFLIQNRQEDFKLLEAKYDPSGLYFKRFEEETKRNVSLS
- experiment-description: Binding of fluorescent probe 1-NPN to recombinant AlinCSP5
metric-name: Kd (µM)
State the answer as a number, implicitly in µM.

[Q] Look up Kd: c1ccc(Nc2cccc3ccccc23)cc1
[A] 4.2
